B1: C22orf15 (parent)
chain: RGRHEQSPTSRPRKVSSLPPRSC

- Variants of: B1
- Assay notes: protein stability index of a GFP-peptide fusion (GPS, HEK-293T) (PSI 1-6); higher = more stable;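 further: lentivirally expressed fusions sorted by FACS into six bins by GFP to DsRed ratio, PSI derived from sequencing read proportions per bin multiplied by bin number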
- Settings: c terminus: native
// Criterion not met strictly below 3 in protein stability index; Criterion met otherwise

• RGRHEQSPTSRPRKVSSLMPRSC [P19M] = Criterion not met
• RGRHEQSPTSRPRKTSSLPPRSC [V15T] = Criterion not met
• RGKHEQSPTSRPRKVSSLPPRSC [R3K] = Criterion not met
• RGRHEQVPTSRPRKVSSLPPRSC [S7V] = Criterion met
• RGRHEQSPTSRPRKVSSHPPRSC [L18H] = Criterion met
• RGRHEQSPTSRPRKVSSLPVRSC [P20V] = Criterion not met
• RGRHEQSPTSRPRKVTSLPPRSC [S16T] = Criterion not met
• RGRHEQSPTSRPRKRSSLPPRSC [V15R] = Criterion not met
• RGRHEQSPTSSPRKVSSLPPRSC [R11S] = Criterion not met
• RGRHEQSPTSKPRKVSSLPPRSC [R11K] = Criterion met
• RGRHEQSPTSRPRKVASLPPRSC [S16A] = Criterion not met
• MGRHEQSPTSRPRKVSSLPPRSC [R1M] = Criterion met
• RGRHEQSPTSRPRKVSSLPPRSL [C23L] = Criterion not met
• RGRHEQSPTSRPRKVSYLPPRSC [S17Y] = Criterion not met
• RGRHEQSPTSRPMKVSSLPPRSC [R13M] = Criterion met
• RGRHELSPTSRPRKVSSLPPRSC [Q6L] = Criterion not met
• RMRHEQSPTSRPRKVSSLPPRSC [G2M] = Criterion not met
• RGRHEQSPTSRPRFVSSLPPRSC [K14F] = Criterion met
• RGRHEQSPTSRPRKFSSLPPRSC [V15F] = Criterion met
• RGRHEQSPTKRPRKVSSLPPRSC [S10K] = Criterion not met
• RGRHEQSPTSRPYKVSSLPPRSC [R13Y] = Criterion not met
• RGRHEISPTSRPRKVSSLPPRSC [Q6I] = Criterion met
• RGRHEQSPTSRPSKVSSLPPRSC [R13S] = Criterion not met
• RGRHEQSPTSRPRKVSSDPPRSC [L18D] = Criterion not met
• RGRHEQSPTSRPRKVSSLPPKSC [R21K] = Criterion met
• RGRHETSPTSRPRKVSSLPPRSC [Q6T] = Criterion not met
• RGRHEQSGTSRPRKVSSLPPRSC [P8G] = Criterion not met
• RGRHEQSPTSRPRKVSMLPPRSC [S17M] = Criterion not met
• RGRHEQSPTSRPRKVDSLPPRSC [S16D] = Criterion not met
• RGRHEQSPTSRPRKVSSLSPRSC [P19S] = Criterion met
• RGRIEQSPTSRPRKVSSLPPRSC [H4I] = Criterion met
• RGRHEQSPTSRPRKCSSLPPRSC [V15C] = Criterion not met
• RGRHEQSKTSRPRKVSSLPPRSC [P8K] = Criterion met
• RGRHEQSPTSGPRKVSSLPPRSC [R11G] = Criterion not met
• RGRHEQSPTTRPRKVSSLPPRSC [S10T] = Criterion not met
• RGRHEQSPTSRPRKNSSLPPRSC [V15N] = Criterion not met
• RGRHEQSPTSRPRKVHSLPPRSC [S16H] = Criterion not met
• RGRHEQSPTSRPRKVSSLPPHSC [R21H] = Criterion met
• RGRHEQSPTSWPRKVSSLPPRSC [R11W] = Criterion met
• RGRHEQSPKSRPRKVSSLPPRSC [T9K] = Criterion not met
• RGRHEQSPTSRPRTVSSLPPRSC [K14T] = Criterion met
• RGRHFQSPTSRPRKVSSLPPRSC [E5F] = Criterion not met
• RGRHEQSPTSRPRKVSSVPPRSC [L18V] = Criterion met
• RGRHEQSPTVRPRKVSSLPPRSC [S10V] = Criterion not met
• RYRHEQSPTSRPRKVSSLPPRSC [G2Y] = Criterion met
• RGRHEQSPTSRPLKVSSLPPRSC [R13L] = Criterion met
• RERHEQSPTSRPRKVSSLPPRSC [G2E] = Criterion not met
• RGRCEQSPTSRPRKVSSLPPRSC [H4C] = Criterion not met
• RGRHEQNPTSRPRKVSSLPPRSC [S7N] = Criterion not met
• RGRHYQSPTSRPRKVSSLPPRSC [E5Y] = Criterion met
• RGRHEQSPTSRPRKVSSLYPRSC [P19Y] = Criterion met
• RGRHEQSPYSRPRKVSSLPPRSC [T9Y] = Criterion not met
• RGRHEQSPTSRPRNVSSLPPRSC [K14N] = Criterion not met
• RGRHLQSPTSRPRKVSSLPPRSC [E5L] = Criterion not met
• RGRHEQSPTSRPQKVSSLPPRSC [R13Q] = Criterion not met
• RGRHEQSPTSRPRKVSSAPPRSC [L18A] = Criterion not met
• RGLHEQSPTSRPRKVSSLPPRSC [R3L] = Criterion met
